target: Recombinant human his-tagged IGF 1R extracellular domain protein (human) (UniProt P08069); test: SPR, captured antibody, dissociation at pH 6
PROPERTY: pKd
Numbers only, as −log10 of the molar value.

>  <BINDER>
VRDN-03112 (antibody, V domains shown) VH: QVQLVESGGGVVQPGRSLRLSCAASGFTFSDYTMHWVRQAPGKGLEWVAIIWFDGSSKYYPGSVKGRFTISRDNSKNTLYLQMNSLRAEDTAVYYCARELGRRYFDIWGRGTLVTVSS VL: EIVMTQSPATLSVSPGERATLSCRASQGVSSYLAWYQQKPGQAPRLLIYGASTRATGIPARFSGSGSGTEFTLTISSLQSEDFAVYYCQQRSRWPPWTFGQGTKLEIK

>  <pKd>
8.56

$$$$

Dear reader, for each entry below, please note its pKd.
1. VRDN-03041 (antibody, V domains shown) VH: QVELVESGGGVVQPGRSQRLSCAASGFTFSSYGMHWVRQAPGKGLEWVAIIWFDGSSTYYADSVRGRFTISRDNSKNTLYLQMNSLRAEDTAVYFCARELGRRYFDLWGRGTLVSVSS VL: EIVLTQSPATLSLSPGERATLSCRASHSVSSYLAWYQQKPGQAPRLLIYDASKRATGIPARFSGSGSGTDFTLTISSLEPEDFAVYYCQQRSKWPPWTFGQGTKVESK
2. VRDN-03099 (antibody, V domains shown) VH: QVQLVESGGGVVQPGRSLRLSCAASGFTFSSYSMHWVRQAPGKGLEWVAIIWFDGSSKYYVDSVKGRFTISRDNSKNTLYLQMNSLRAEDTAVYYCARELGRRYFDIWGRGTLVTVSS VL: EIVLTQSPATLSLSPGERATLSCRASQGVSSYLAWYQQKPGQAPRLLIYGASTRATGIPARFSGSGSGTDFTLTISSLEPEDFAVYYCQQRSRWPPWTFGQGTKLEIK
3. VRDN-03109 (antibody, V domains shown) VH: QVQLVESGGGVVQPGRSLRLSCAASGFTFSSYSMHWVRQAPGKGLEWVAIIWFDGSSKYYPGSVKGRFTISRDNSKNTLYLQMNSLRAEDTAVYYCARELGRRYFDIWGRGTLVTVSS VL: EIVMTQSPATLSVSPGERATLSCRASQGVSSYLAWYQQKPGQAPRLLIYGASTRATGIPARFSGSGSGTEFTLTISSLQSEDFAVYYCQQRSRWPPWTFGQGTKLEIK
4. VRDN-03115 (antibody, V domains shown) VH: QVQLVESGGGVVQPGRSLRLSCAASGFTFSDHYMDWVRQAPGKGLEWVAIIWFDGSSKYYPGSVKGRFTISRDNSKNTLYLQMNSLRAEDTAVYYCARELGRRYFDIWGRGTLVTVSS VL: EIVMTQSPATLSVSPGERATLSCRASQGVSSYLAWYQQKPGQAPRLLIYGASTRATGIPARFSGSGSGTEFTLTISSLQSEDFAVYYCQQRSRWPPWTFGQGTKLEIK

// result
[9.25, 8.87, 8.57, 8.92]

Dear reader, for each entry below, please note its pKd.
1. VRDN-03039 (antibody, V domains shown) VH: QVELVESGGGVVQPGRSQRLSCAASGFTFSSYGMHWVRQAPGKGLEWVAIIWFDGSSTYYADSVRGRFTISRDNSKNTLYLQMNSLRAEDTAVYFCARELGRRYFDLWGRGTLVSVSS VL: EIVLTQSPATLSLSPGERATLSCRHSQSVSSYLAWYQQKPGQAPRLLIYDASKRATGIPARFSGSGSGTDFTLTISSLEPEDFAVYYCQQRSKWPPWTFGQGTKVESK
2. VRDN-03100 (second entry of that label; VH and VL pair SEQ ID NO: 223) (antibody, V domains shown) VH: QVQLVESGGGVVQPGRSLRLSCAASGFTFSSYSMHWVRQAPGKGLEWVAIIWFDGSSKYYPGSVKGRFTISRDNSKNTLYLQMNSLRAEDTAVYYCARELGRRYFDIWGRGTLVTVSS VL: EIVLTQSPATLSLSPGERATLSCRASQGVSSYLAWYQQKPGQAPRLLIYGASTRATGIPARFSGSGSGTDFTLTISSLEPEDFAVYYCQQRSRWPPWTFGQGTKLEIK
3. VRDN-03104 (antibody, V domains shown) VH: QVQLVESGGGVVQPGRSLRLSCAASGFTFSDHYMDWVRQAPGKGLEWVAIIWFDGSSKYYADSVKGRFTISRDNSKNTLYLQMNSLRAEDTAVYYCARELGRRYFDIWGRGTLVTVSS VL: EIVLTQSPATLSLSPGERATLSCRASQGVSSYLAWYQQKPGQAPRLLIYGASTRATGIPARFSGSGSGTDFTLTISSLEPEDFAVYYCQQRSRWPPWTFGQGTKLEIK
4. VRDN-03114 (antibody, V domains shown) VH: QVQLVESGGGVVQPGRSLRLSCAASGFTFSDHYMDWVRQAPGKGLEWVAIIWFDGSSKYYVDSVKGRFTISRDNSKNTLYLQMNSLRAEDTAVYYCARELGRRYFDIWGRGTLVTVSS VL: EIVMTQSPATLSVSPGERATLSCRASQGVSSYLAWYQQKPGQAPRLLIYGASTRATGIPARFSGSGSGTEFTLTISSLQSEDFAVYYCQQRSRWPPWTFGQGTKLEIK
5. VRDN-03049 (antibody, V domains shown) VH: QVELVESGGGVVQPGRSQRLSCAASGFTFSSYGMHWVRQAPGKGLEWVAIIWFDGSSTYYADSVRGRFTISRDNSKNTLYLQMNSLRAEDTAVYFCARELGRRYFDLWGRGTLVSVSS VL: EIVLTQSPATLSLSPGERATLSCRASQSVSSYLAWYQQKPGQAPRLLIYHASKRATGIPARFSGSGSGTDFTLTISSLEPEDFAVYYCQQRSKWPPWTFGQGTKVESK

// result
1. 7.84
2. 8.77
3. 8.79
4. 10.25
5. 8.57
